Values from patent US20070021456A1

- experimentalTarget: Tie-2 kinase (Homo sapiens, UniProt Q02763)
- Sequence (Q02763 23-1124): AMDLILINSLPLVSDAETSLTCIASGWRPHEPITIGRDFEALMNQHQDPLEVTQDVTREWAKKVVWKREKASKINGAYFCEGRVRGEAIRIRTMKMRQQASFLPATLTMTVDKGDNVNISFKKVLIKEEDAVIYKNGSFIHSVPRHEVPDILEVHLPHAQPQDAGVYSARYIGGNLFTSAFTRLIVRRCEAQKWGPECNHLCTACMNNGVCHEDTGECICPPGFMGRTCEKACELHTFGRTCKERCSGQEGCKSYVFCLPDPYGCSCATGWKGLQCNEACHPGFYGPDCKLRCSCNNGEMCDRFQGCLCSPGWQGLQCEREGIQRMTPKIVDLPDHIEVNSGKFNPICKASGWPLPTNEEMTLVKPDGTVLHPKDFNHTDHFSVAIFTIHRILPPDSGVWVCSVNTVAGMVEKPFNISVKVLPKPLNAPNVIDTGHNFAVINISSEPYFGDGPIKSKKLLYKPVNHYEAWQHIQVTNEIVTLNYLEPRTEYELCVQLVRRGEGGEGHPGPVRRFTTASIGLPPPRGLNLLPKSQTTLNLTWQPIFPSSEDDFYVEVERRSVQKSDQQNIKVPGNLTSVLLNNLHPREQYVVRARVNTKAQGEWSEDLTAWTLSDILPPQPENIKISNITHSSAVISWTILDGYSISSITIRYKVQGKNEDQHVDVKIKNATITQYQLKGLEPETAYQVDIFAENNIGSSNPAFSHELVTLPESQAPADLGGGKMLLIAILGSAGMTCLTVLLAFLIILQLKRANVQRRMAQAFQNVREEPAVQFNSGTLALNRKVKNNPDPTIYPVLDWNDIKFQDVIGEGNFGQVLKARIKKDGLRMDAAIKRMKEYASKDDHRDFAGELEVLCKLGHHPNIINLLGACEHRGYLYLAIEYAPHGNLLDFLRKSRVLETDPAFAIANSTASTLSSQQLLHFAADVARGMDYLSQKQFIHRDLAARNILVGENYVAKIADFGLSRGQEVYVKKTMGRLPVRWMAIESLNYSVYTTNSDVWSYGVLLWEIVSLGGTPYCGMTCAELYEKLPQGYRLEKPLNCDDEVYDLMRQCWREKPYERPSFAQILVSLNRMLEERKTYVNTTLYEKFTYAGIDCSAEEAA
quantityMeasured: IC50 (nM)

INSERT INTO measurements (chemicalsmiles, unitslabel, reading) VALUES
  ('Nc1nc2ccc(Oc3ccc(Nc4nc5cc(C(F)(F)F)cc(Cl)c5[nH]4)cc3)cc2s1', 'nM', 320),
  ('FC(F)(F)c1cc(Br)c2nc(Nc3ccc(Oc4ccc5nsnc5c4)cc3)[nH]c2c1', 'nM', 220),
  ('FC(F)(F)c1cc(Cl)c2nc(Nc3ccc(Oc4ccc5nsnc5c4)cc3)[nH]c2c1', 'nM', 250);
